- Test system: Wild type
- assay_remarks: S. aureus survival, RN4220 and DeltatarO strains – OD600, teichoic acid synthesis inhibitors, primary screen (AID 463173)
- condition_description: S. aureus RN4220 wild type/DeltatarO growth, OD600, 18 h, active compounds read low, screened at 18.75 µg/mL (by protocol)
The campaign covered roughly 52,000 compounds. About 1,700 (3.3%) were called active. The sample holds actives, similar compounds and a random draw of the others, so the mix is not that of the screen.
measurement_type: survival (%)
I only need the number, in %, no unit after it.

Some solved cases for reference:
[
  {
    "molecule": "Cc1[nH]n2c(=O)cc(-c3ccccc3Cl)nc2c1-c1ccccc1",
    "number": -13
  },
  {
    "molecule": "Cc1ccc(Cl)cc1N1CCN(CCNC(=O)Nc2ccccc2Cl)CC1",
    "number": 98
  },
  {
    "molecule": "O=S(=O)(c1ccc2nc(N3CCN(c4cccc(Cl)c4)CC3)ccc2c1)N1CCCCC1",
    "number": 55
  },
  {
    "molecule": "O=C(O)CN1C(=O)/C(=C\\c2ccccc2)SC1=S",
    "number": 102
  },
  {
    "molecule": "Cc1nn2c(-c3ccccc3)cc(-c3ccccc3)nc2c1-c1ccc(Cl)cc1",
    "number": 86
  }
]

// returns reported survival for input COc1ccc(Cc2nnc(C(=O)NCCCN3CCN(c4ccccc4F)CC3)o2)cc1OC
87

// returns reported survival for input Cc1nn(CC(=O)NCc2ccccc2Cl)c(=O)c2nn(-c3ccccc3)c(C)c12
130

// returns reported survival for input CCOc1cc(Br)c(C2C(C(=O)OC)=C(C)NC3=C2C(=O)c2ccccc23)cc1OCC (stereo unspecified)
96

----------
- System: Wild type
- assay_remarks: S. aureus survival, RN4220 and DeltatarO strains – OD600, teichoic acid synthesis inhibitors, primary screen (AID 463173)
- condition_description: S. aureus RN4220 wild type/DeltatarO growth, OD600, 18 h, screened at 18.75 µg/mL (by protocol)
Out of some 52,000 compounds screened, about 1,700 (3.3%) were called active. Rule as the data show it: active = survival mostly below about 52% (no sharp cut-off); inactive = mostly above about 56%. The full list was thinned out, with actives kept by preference.
Pick one: 1 = active, 0 = inactive

Worked examples, 10 compounds total:
[
  {
    "compound": "Cc1oc(-c2ccc(C(=O)NCc3ccccc3)cc2)nc1CN1CCc2ccccc21",
    "class_label": 0
  },
  {
    "compound": "CCc1ccc2ncc3c(-c4ccc(C)cc4)nn(CC(=O)NCc4ccccc4)c3c2c1",
    "class_label": 0
  },
  {
    "compound": "CCCN(CCC)CC(O)Cn1cc(/C=C/C(=O)c2ccc(OC)cc2)c2ccccc21 (configuration not stated)",
    "class_label": 1
  },
  {
    "compound": "COc1ccc(C(=O)/C=C/c2cn(CC(O)CN(CC(C)C)CC(C)C)c3ccccc23)cc1OC (configuration not stated)",
    "class_label": 0
  },
  {
    "compound": "CCOC(=O)C(Cc1ccccc1)N1C(=O)c2ccccc2C1=O (configuration not stated)",
    "class_label": 0
  },
  {
    "compound": "COc1ccc(OC)c(CNC(=O)c2ccc(-c3nc(CSc4ccccc4)c(C)o3)cc2)c1",
    "class_label": 0
  },
  {
    "compound": "NC(=O)c1cc2n(n1)C(C(F)(F)F)CC(c1ccc(Cl)cc1)N2 (configuration not stated)",
    "class_label": 0
  },
  {
    "compound": "COc1ccc(CNC(=O)c2ccc(-c3nc(CSc4ccc(C)cc4)c(C)o3)cc2)c(OC)c1",
    "class_label": 1
  },
  {
    "compound": "CCOc1ccc(-c2nnc(SCC(=O)NCc3ccccc3Cl)o2)cc1",
    "class_label": 0
  },
  {
    "compound": "COc1ccc(CNC(=O)c2ccc(-c3nc(CSc4ccccc4)c(C)o3)cc2)c(OC)c1",
    "class_label": 0
  }
]

Assay outcome for COc1ccccc1NC(=O)CCn1nc(-c2ccccc2OC)c2c(C)cc(C)nc21 : what was it?
0
